For each of the compounds below, state its IC50.
assayed system: UniProt P26358
Sequence (P26358 whole entry): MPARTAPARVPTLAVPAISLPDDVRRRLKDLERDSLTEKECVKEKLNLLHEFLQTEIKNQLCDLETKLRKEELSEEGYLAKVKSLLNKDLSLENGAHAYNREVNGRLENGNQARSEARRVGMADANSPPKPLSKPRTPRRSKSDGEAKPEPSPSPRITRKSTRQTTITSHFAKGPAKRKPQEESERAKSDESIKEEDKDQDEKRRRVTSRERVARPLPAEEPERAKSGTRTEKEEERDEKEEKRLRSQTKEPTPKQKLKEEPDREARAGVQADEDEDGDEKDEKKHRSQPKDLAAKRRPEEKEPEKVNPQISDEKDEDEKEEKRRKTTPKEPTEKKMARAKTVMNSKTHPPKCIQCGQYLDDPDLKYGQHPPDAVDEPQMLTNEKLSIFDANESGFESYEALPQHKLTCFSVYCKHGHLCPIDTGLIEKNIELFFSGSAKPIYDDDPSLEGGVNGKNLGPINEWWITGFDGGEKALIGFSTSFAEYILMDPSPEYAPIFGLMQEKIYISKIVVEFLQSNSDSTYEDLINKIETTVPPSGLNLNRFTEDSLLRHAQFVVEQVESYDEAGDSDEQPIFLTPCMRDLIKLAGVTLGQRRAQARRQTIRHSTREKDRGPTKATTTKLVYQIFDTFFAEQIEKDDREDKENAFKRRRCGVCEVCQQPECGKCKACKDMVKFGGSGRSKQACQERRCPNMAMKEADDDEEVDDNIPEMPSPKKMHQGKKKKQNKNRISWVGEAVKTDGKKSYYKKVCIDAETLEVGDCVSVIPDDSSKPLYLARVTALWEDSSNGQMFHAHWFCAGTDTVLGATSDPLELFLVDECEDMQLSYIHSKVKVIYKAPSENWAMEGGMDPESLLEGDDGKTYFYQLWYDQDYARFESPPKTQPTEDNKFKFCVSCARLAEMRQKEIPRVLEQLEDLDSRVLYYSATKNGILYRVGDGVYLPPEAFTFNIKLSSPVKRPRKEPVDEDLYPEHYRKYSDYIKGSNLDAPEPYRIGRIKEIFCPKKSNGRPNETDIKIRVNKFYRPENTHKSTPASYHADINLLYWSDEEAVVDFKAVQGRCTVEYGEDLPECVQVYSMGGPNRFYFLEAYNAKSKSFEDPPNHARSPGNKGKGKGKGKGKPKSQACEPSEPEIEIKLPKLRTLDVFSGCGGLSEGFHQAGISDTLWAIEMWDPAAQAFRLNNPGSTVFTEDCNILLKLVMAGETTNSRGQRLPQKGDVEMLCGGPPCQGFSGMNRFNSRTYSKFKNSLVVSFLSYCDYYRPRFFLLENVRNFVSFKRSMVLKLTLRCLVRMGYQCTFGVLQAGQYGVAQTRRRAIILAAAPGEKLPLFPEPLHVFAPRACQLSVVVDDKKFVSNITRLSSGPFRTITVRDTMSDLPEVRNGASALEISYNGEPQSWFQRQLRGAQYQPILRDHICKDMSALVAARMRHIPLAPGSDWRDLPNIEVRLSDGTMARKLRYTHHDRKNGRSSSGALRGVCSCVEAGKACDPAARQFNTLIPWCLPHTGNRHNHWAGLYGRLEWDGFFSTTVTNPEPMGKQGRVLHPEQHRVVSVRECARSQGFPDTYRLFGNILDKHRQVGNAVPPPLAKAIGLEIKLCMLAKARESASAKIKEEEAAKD
assay explanation: Inhibition of human recombinant DNMT1 expressed in Sf9 cells assessed as incorporation of [3H]S-adenosyl methionine into hemimethylated oligonucleotide substrate after 3 hrs by scintillation counting

For each of the compounds below, state IC50.
1. CN1CC2ON=C(Cc3ccc([N+](=O)[O-])cc3)C2C1 (stereo unspecified)
2. CN(C)CC1CC(c2ccc([N+](=O)[O-])cc2)=NO1 (stereo unspecified)

### Response
310 µM
150 µM

For each of the compounds below, state IC50.
1. CN(C)CC1CC(c2ccc(N)cc2)=NO1 (stereo unspecified)
2. COc1ccc(CC2=NOC3CN(C)CC23)cc1 (stereo unspecified)
3. CN1CC2ON=C(c3ccc(N)cc3)C2C1 (stereo unspecified)
4. CN(C)CC1CC(Cc2ccc([N+](=O)[O-])cc2)=NO1 (stereo unspecified)

### Response
1. 270 µM
2. 1130 µM
3. 570 µM
4. 1600 µM

The measurements presented in this section are drawn from ChEMBL document CHEMBL1914404.
